Reference for the values: ChEMBL document CHEMBL1123964

Provide the reported ED50 (ug injection-1) of each item.
Molecular target: Gonadotropin-releasing hormone receptor (Rattus norvegicus) (UniProt P30969)
Sequence (whole entry): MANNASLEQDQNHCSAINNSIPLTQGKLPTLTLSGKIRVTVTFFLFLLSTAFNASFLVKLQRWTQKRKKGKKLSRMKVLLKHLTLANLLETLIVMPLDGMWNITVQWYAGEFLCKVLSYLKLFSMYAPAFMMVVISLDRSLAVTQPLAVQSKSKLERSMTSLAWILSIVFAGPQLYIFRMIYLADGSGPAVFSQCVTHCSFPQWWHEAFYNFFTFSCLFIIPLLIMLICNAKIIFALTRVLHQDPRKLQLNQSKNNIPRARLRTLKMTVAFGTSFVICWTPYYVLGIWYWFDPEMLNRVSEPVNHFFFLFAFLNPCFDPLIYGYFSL
Assay: Antiovulatory activity on proestrus was measured by administering as a solution in 50% propylene glycol / 0.9% saline in rat
Assay type: functional
Answers are plain numbers.

Would you mind listing ED50 (ug injection-1) for each of the following molecules?
1. CC(=O)N[C@H](Cc1ccc(Cl)cc1)C(=O)N[C@H](Cc1ccc(Cl)cc1)C(=O)N[C@H](Cc1c[nH]c2ccccc12)C(=O)N[C@@H](CO)C(=O)N[C@@H](Cc1ccc(O)cc1)C(=O)N[C@H](CCCCN=C(N)N)C(=O)N[C@@H](CC(C)C)C(=O)N[C@@H](CCCN=C(N)N)C(=O)N1CCC[C@H]1C(=O)N[C@H](C)C(N)=O
2. CCCCNC(=NCCCC[C@@H](NC(=O)[C@H](Cc1ccc(O)cc1)NC(=O)[C@H](CO)NC(=O)[C@@H](Cc1c[nH]c2ccccc12)NC(=O)[C@@H](Cc1ccc(Cl)cc1)NC(=O)[C@@H](Cc1ccc2ccccc2c1)NC(C)=O)C(=O)N[C@@H](CC(C)C)C(=O)N[C@@H](CCCN=C(N)N)C(=O)N1CCC[C@H]1C(=O)N[C@H](C)C(N)=O)NCCCC
3. CCNC(=NCCCC[C@@H](NC(=O)[C@H](Cc1ccc(O)cc1)NC(=O)[C@H](CO)NC(=O)[C@@H](Cc1ccncc1)NC(=O)[C@@H](Cc1ccc(Cl)cc1)NC(=O)[C@@H](Cc1ccc2ccccc2c1)NC(C)=O)C(=O)N[C@@H](CC(C)C)C(=O)N[C@@H](CCCN=C(N)N)C(=O)N1CCC[C@H]1C(=O)N[C@H](C)C(N)=O)NCC

Response given:
1: 1.3; 2: 3.4; 3: 1.7

Parameter requested: ED50 (ug injection-1). Apply to each item below.
1. CCCNC(=NCCCC[C@@H](NC(=O)[C@H](Cc1ccc(O)cc1)NC(=O)[C@H](CO)NC(=O)[C@@H](Cc1c[nH]c2ccccc12)NC(=O)[C@@H](Cc1ccc(F)cc1)NC(=O)[C@@H](Cc1ccc2ccccc2c1)NC(C)=O)C(=O)N[C@@H](CC(C)C)C(=O)N[C@@H](CCCN=C(N)N)C(=O)N1CCC[C@H]1C(=O)NCC(N)=O)NCCC
2. CC(=O)N[C@H](Cc1ccc(Cl)cc1)C(=O)N[C@H](Cc1ccc(Cl)cc1)C(=O)N[C@H](Cc1c[nH]c2ccccc12)C(=O)N[C@@H](CO)C(=O)N[C@@H](Cc1ccc(O)cc1)C(=O)N[C@H](CCCCN=C(NC(C)C)NC(C)C)C(=O)N[C@@H](CC(C)C)C(=O)N[C@@H](CCCN=C(N)N)C(=O)N1CCC[C@H]1C(=O)N[C@H](C)C(N)=O
3. CCCNC(=NCCCC[C@@H](NC(=O)[C@H](Cc1ccc(O)cc1)NC(=O)[C@H](CO)NC(=O)[C@@H](Cc1c[nH]c2ccccc12)NC(=O)[C@@H](Cc1ccc(Cl)cc1)NC(=O)[C@@H](Cc1ccc(Cl)cc1)NC(C)=O)C(=O)N[C@@H](CC(C)C)C(=O)N[C@@H](CCCN=C(N)N)C(=O)N1CCC[C@H]1C(=O)N[C@H](C)C(N)=O)NCCC

Response given:
1: 2.4; 2: 16; 3: 2.6
